Experiment: NCI Yeast Anticancer Drug Screen. Data for the sgs1 strain (AID 173);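 note: 0% = growth of vehicle-only control cultures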
Settings: S. cerevisiae sgs1 mutant, at 100.0 µM, stronger effect = higher value
About 79,000 compounds went through this panel and 15% of them were active in at least one assay; those are over-represented in the sample as a whole. Activity calls are given as the source filed them. Cut-off read from the data, not from the text of the source: active = growth inhibition above about 70%; inactive = the rest.
Measured growth inhibition, listed per entry.

O=C(O)Cc1cc(F)ccc1C(=O)O	65% (inactive)

Endpoint output: growth inhibition of `O=C1c2ccccc2C(=O)c2cc(CCl)ccc21` . Value? 14% (inactive)

Which growth inhibition value belongs to C[Si](C)(C)/C=C/CCNC(C#N)c1ccccc1 (configuration not stated) ? 94% (active)

May I ask what growth inhibition has been recorded for `O=C1C=C(Cl)C(=O)C(c2ccc(Cl)cc2)=C1` ? 96% (active)

Record request: growth inhibition value, item `Cc1c(C)c(C)c(CSC(=N)N)c(C)c1C` 98% (active)

For `O=c1ccc(=O)n(-c2ccccc2)[nH]1` , what is its reported growth inhibition? 98% (active)

Field request: growth inhibition | item: `CCCC/C([O-])=C1/C(=O)N(c2ccccc2)N=C1C.CCCC/C([O-])=C1/C(=O)N(c2ccccc2)N=C1C.[Cu+2]` -1% (inactive)
